The reported measurements were obtained from patent US12459930B2.

- Tested on: PC3 spheres (cancer stem cells)
- TEST_DETAILS: In vitro sphere-forming assay (cancer stem cells), PC3 in Prostosphere media
- RECORDED_CONDITIONS: 2.5 uM; 2000 cells/well; n = 6 ± S.D
Measured 3D sphere count of PC3 in Prostosphere media values are reported for all entries that follow.
ASSAY_METRIC: 3D sphere count of PC3 in Prostosphere media

# MOLECULE, REPORTED_RESULT
measured = [
    ("O=C1OCc2c1c(-c1ccc3c(c1)OCO3)c1cc3c(cc1c2OCCN1CCOCC1)OCO3 [Formula XI]", "21(±3)"),
    ("c1ccc2c(-c3ccc4c(c3)OCO4)ccc(OCCCCN3CCOCC3)c2c1 [Formula VIII]", "36(±2)"),
    ("c1ccc2c(-c3ccc4c(c3)OCO4)ccc(OCCCCCCN3CCOCC3)c2c1 [Formula IV]", "32(±3)"),
    ("c1ccc2c(-c3ccc4c(c3)OCO4)ccc(OCCN3CCOCC3)c2c1 [Formula X]", "42(±4)"),
    ("c1cc2c(cc1-c1ccc(OCCN3CCOCC3)c3c1CCCC3)OCO2 [Formula XXI]", "45(±3)"),
    ("Cl.c1ccc2c(-c3ccc4c(c3)OCO4)ccc(OCCCCCCN3CCOCC3)c2c1 [Formula V]", "41(±2)"),
    ("c1cc2c(cc1-c1ccc(OCCCCCCNC3CCCCC3)c3c1CCCC3)OCO2 [Formula XVIII]", "27(±4)"),
]

---

- Test system: PC3 spheres (cancer stem cells)
- TEST_DETAILS: In vitro sphere-forming assay (cancer stem cells), PC3 in Prostosphere media
- RECORDED_CONDITIONS: read-out: % Viability of spheres (PC3), 25 uM; GCD = 100% viability
Measured viability at 25 µM values are reported for all entries that follow.
ASSAY_METRIC: viability at 25 µM (%)

# COMPOUND, TARGET_OF_ASSAY, REPORTED_RESULT
measured = [
    ("COc1cccc(-c2ccc(OCCN3CCOCC3)c3ccccc23)c1 [Formula XII]", "PC3 spheres (cancer stem cells)", 11),
    ("c1cc2c(cc1-c1ccc(OCCN3CCOCC3)c3c1CCCC3)OCO2 [Formula XXI]", "PC3 spheres (cancer stem cells)", 45),
    ("c1cc2c(cc1-c1ccc(OCCCCCCN3CCOCC3)c3c1CCCC3)OCO2 [Formula XX]", "PC3 spheres (cancer stem cells)", 0),
    ("C=CCNCCCCCCOc1ccc(-c2ccc3c(c2)OCO3)c2c1CCCC2 [Formula XXII]", "PC3 spheres (cancer stem cells)", 17),
]

---

Measured 3D sphere count of PC3 in Prostosphere media values are reported for all entries that follow.
- Test system: PC3 spheres (cancer stem cells)
- TEST_DETAILS: In vitro sphere-forming assay (cancer stem cells), PC3 in Prostosphere media
- RECORDED_CONDITIONS: 25 uM; 2000 cells/well; n = 6 ± S.D
ASSAY_METRIC: 3D sphere count of PC3 in Prostosphere media

# COMPOUND, REPORTED_RESULT
records = [
    ("c1cnc2c(OCCCCCCN3CCOCC3)ccc(-c3ccc4c(c3)OCO4)c2c1 [Formula XVI]", "25(±4)"),
    ("COc1cccc(-c2ccc(OCCN3CCOCC3)c3ccccc23)c1 [Formula XII]", "9(±3)"),
    ("c1ccc2c(-c3ccc4c(c3)OCO4)ccc(OCCCCCCN3CCOCC3)c2c1 [Formula IV]", "22(±3)"),
    ("c1cc2c(cc1-c1ccc(OCCCCCCN3CCOCC3)c3c1CCCC3)OCO2 [Formula XX]", "0(±0)"),
    ("c1ccc2c(-c3ccc4c(c3)OCO4)ccc(OCCCCNC3CCCCC3)c2c1 [Formula XIV]", "13(±3)"),
    ("COc1cc2c(OCCCCN3CCOCC3)c3c(c(-c4ccc5c(c4)OCO5)c2cc1OC)C(=O)OC3.Cl [Formula VII]", "32(±3)"),
]
